ASSAY PROTOCOL: inhibitors of TNFa-induced NFkB p65 translocation, primary screen, imaging, HUVEC, MLSMR starter and 10KST1 sets (AID 438);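 note: compound added about 3h40 before a 20 min TNFalpha stimulation; signal is the nuclear over cytoplasmic p65 intensity ratio per well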
SETTINGS: HUVEC TNFa-induced p65 nuclear translocation; at 2 µM, stronger effect = higher value, 0% TNFa-plus-vehicle, 100% no-TNFa wells
REPORTED PROPERTY: inhibition (%)
Record the value in %, omitting the unit from your answer.

COMPOUND	UNIT ABBREV	READOUT VALUE
C/C(Cl)=C\Cn1c(Nc2ccc(C)cc2)nc2c1c(=O)n(C)c(=O)n2C	%	-1.1

Query (compound): Cn1c(=O)cc(SCC(=O)NCc2cccnc2)c2ccccc21 ; field requested: inhibition
2.8

Can you check O=C1NC(c2ccccc2)(C(F)(F)F)SC2=CCCCCN12 (stereo not drawn) next?
12.1

---

ASSAY PROTOCOL: endothelial E-selectin expression blockers – imaging, HUVEC, immunofluorescence, MLSMR starter and 10KST1 sets, primary screen (AID 487);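 for nuclei count: 100% = median nuclei count of all wells on the same plate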
SETTINGS: HUVEC TNFalpha-induced E-selectin immunofluorescence imaging, at 2 µM; measured here: cell number, toxicity
REPORTED PROPERTY: nuclei count (%)
# output: bare number, implied unit %

COMPOUND	UNIT ABBREV	READOUT VALUE
CCOC(=O)N1CCN(Cc2cc(=O)oc3ccc4ccccc4c23)CC1	%	113
COc1ccc(CCNc2oc(Cc3cccc4ccccc34)nc2C#N)cc1OC	%	88.7
CCOc1ccc2oc(-c3ccccc3)c(C(=O)N3CCN(CCO)CC3)c2c1	%	112

Look up nuclei count: Cc1cc(N)n2nc(-c3ccccc3)cc2n1
110

Item: O=C(CSc1nc2ccccc2o1)NC(=O)NCc1ccco1
112

---

TGT: Voltage-gated potassium channel subunit beta-2 (Rattus norvegicus) (UniProt P62483)
Sequence (P62483 whole entry, looked up): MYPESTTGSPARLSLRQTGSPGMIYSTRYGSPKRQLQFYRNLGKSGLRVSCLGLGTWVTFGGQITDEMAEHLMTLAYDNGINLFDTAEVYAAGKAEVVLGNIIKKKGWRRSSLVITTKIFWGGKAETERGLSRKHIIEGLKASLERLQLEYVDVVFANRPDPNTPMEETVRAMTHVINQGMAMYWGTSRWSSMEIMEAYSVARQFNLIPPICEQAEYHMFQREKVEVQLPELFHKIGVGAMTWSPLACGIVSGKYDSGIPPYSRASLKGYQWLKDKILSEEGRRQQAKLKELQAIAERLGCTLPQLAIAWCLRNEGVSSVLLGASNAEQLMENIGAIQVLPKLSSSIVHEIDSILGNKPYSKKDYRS
ASSAY PROTOCOL: enhancers of rat Kvbeta2 NADPH turnover – biochemical, NADPH fluorescence, primary screen (AID 623);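 note: fluorescence intensity change per second fitted from 20 to 320 s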
SETTINGS: Recombinant KvBeta, NADPH fluorescence decrease slope, 10 min; at 10 µM; stronger effect = lower value
Calls of active or inactive are those of the source.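 The calls were made as follows: active = NADPH fluorescence slope more negative than the mean of all samples by about 3 SD, 99.7% confidence; inactive = the rest.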
REPORTED PROPERTY: NADPH fluorescence slope

COMPOUND	TGT	NADPH fluorescence slope
CCC(=O)Oc1ccc2c(C)cc(=O)oc2c1C	Voltage-gated potassium channel subunit beta-2 (Rattus norvegicus) (UniProt P62483)	-4.5e-05 (inactive)
CCn1cnc2cc(NCc3cccc(OC)c3O)ccc21	Voltage-gated potassium channel subunit beta-2 (Rattus norvegicus) (UniProt P62483)	-4.8e-05 (inactive)

Turning to the following compound.
Can you look up the measured NADPH fluorescence slope of O=C(CN1CCN(Cc2ccccc2)CC1)NCC1COc2ccccc2O1 (stereo not drawn) for me?
-7.8e-05 (inactive)

---

ASSAY PROTOCOL: reduction of polyQ htt aggregates in cells – imaging, exon1htt(103Q)mCFP cells, high-content imaging, primary screen (AID 483);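 note: compound exposure lasted 3 days before fixation; percent of the per-plate median nuclei count of sample wells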
SETTINGS: exon1htt(103Q)mCFP cell line, aggregate imaging, at 2 µM; measured here: cell count, toxicity
Each entry below lists one item and its recorded nuclei count value.
Could you give me the number in %? Just the number is fine.

COMPOUND	nuclei count / %
O=C(O)COc1cccc(NC(=O)C2CCCO2)c1 (stereo unspecified)	97.2
CCC(=O)Nc1cccc(Br)c1	99.7
Cc1nnc(NC(=O)CSc2nnc(-c3ccc(S(=O)(=O)N4CCCC4)cc3)n2C)s1	85.9
CC(=O)Nc1nc(-c2ccccc2)nc(C)c1C(C)=O	88.5
CCC1c2ccc(C)n2CCN1C(=O)Nc1ccccc1OC (stereo unspecified)	112

Need nuclei count, item O=P(O)(O)C(O)C(F)(F)C(F)(F)C(F)(F)C(F)F (stereo unspecified)
108

---

Parameter inhibition: see the listing below.
ASSAY PROTOCOL: inhibitors of TNFa-induced NFkB p65 translocation, primary screen, imaging, HUVEC, MLSMR starter and 10KST1 sets (AID 438);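 note: compound added about 3h40 before a 20 min TNFalpha stimulation; signal is the nuclear over cytoplasmic p65 intensity ratio per well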
SETTINGS: HUVEC TNFa-induced p65 nuclear translocation; at 2 µM, stronger effect = higher value, 0% TNFa-plus-vehicle, 100% no-TNFa wells
Respond with the bare value in %.

Check out these entries, answers already filled in.
COMPOUND	UNIT ABBREV	inhibition
CN(Cc1ccc(-n2cccn2)cc1)C(=O)c1cnn2c1NC(c1ccco1)CC2C(F)(F)F (stereo unspecified)	%	9.3
COc1ccc(CCN(Cc2cc3cccc(C)c3[nH]c2=O)C(=O)N2CCCC2)cc1OC	%	2.1
Cc1cc(C)c(NC2=NCC(=O)N2C2CCCCC2)c(C)c1	%	-2.2
Cc1cccc(C)c1NC(=O)CC(NCc1ccco1)C(=O)O (stereo unspecified)	%	-8.3
COc1cccc(C(=O)Nc2c(C(N)=O)oc3ccccc23)c1	%	-14.6
Cn1c(=O)c2c(nc(SCCCC#N)n2Cc2c(F)cccc2Cl)n(C)c1=O	%	0.6
COc1ccc(/C=N/O)cc1COc1ccc(NC(C)=O)cc1	%	9.6
CC1N=C2c3ccccc3N=C(SCc3cc(=O)n4cc(Cl)ccc4n3)N2C1=O (stereo unspecified)	%	7.6
COc1ccc(Cl)cc1N1CCN(CCNC(=O)Nc2ccccc2C)CC1	%	0.6
CCC(=O)OC1(C#CCOc2ccc(OC)cc2)CCN(C)CC1	%	-6.5

inhibition lookup needed for CCCOc1cccc(NC(=O)c2c(-c3ccccc3)noc2C)c1 , thanks.
2

Check CC(=O)Nc1ccc(S(=O)(=O)N2CCN(C(C)CCc3ccccc3)CC2)cc1 (stereo unspecified) too.
0

Now consider CCOc1ccc(Cn2nnc(C(=O)Nc3ccc(OC)cc3OC)c2N)cc1 .
-6.1

Also check CCOC(=O)c1ccc(NC2OC(=O)c3ccccc32)cc1 (stereo unspecified)
-54.1

Could you do the same for CC(=O)Oc1ccc(CCC(C)OC(C)=O)cc1 (stereo unspecified) , please?
-2.9

Input CC(C)(C)NC(=O)CN(C(=O)C1CSC(=O)C1)c1ccc2c(c1)OCCO2 (stereo unspecified)
2.9

---

ASSAY PROTOCOL: endothelial E-selectin expression blockers – imaging, HUVEC, immunofluorescence, MLSMR starter and 10KST1 sets, primary screen (AID 487);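 for nuclei count: 100% = median nuclei count of all wells on the same plate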
SETTINGS: HUVEC TNFalpha-induced E-selectin immunofluorescence imaging, at 2 µM; measured here: cell number, toxicity
REPORTED PROPERTY: nuclei count (%)
Please give a number only; it is taken to be in %.

Examples with their reported nuclei count follow.
MOLECULE	nuclei count / %
CC(=O)NC(C)C(=O)OCC(=O)Nc1ccc(Br)cc1 (configuration not stated)	116
CCOC(=O)c1c(N)nn(C(=O)C(C)C)c1-c1ccccc1	109
CCOC(=O)N1CCC(N2C(=O)c3ccccc3C2Nc2ccccc2C)CC1 (configuration not stated)	106
CCOC(=O)c1ccc(NC(=O)CC2SC(=NC)N(C)C2=O)cc1 (configuration not stated)	110
O=C(CSc1n[nH]c(=O)[nH]c1=O)c1ccccc1	99.8
CC(C)CN1C(=O)c2ccc(C(=O)Nc3nccs3)cc2C1=O	137

Here is another molecule to look at.
# input molecule: CC(=O)NCCC(=O)Nc1ccc(C)c(F)c1 ; wanted: its nuclei count
110

---

Below, each entry is listed with its recorded slope.
TGT: Alpha-2C adrenergic receptor (Homo sapiens)
ASSAY PROTOCOL: compounds altering alpha2C-coupled GIRK flux – cell-based, HEK293 alpha2C/GIRK1/2, thallium flux, primary screen (AID 624);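 note: slope of fluorescence ratio to pre-addition baseline per second over 15 to 24 s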
SETTINGS: thallium flux BTC fluorescence, at 10 µM, actives lie on both sides
Form: value (number only, do not type unit).

COMPOUND	slope
NS(=O)(=O)c1ccc(CCNC(=O)CCC2COc3ccccc3O2)cc1 (stereo not given)	0.00562
CCOc1ccc(NS(=O)(=O)c2cc(Cl)ccc2OC)cc1	0.00586

Please give the measured slope for this compound: c1cc2c(cc1C1CCCN1)OCCCO2 (stereo not given)
0.00434

Another compound to look at: CCN1CCN(c2nc(C)nc3c2sc(=S)n3C)CC1
0.00433

Try the compound COc1cc(CC(=O)Oc2ccc3c(c2)OCO3)cc(OC)c1OC
0.00391

Next compound up: COc1ccc(NC(=O)c2oc3ccc(S(=O)(=O)N4CCC5(CC4)OCCO5)cc3c2C)cc1
0.00642

Then this compound: COC(=O)c1ccc(C2C(C#N)=C(N)Oc3cc(C)n(C)c(=O)c32)cc1 (stereo not given)
0.00425

---

ASSAY PROTOCOL: endothelial E-selectin expression blockers – imaging, HUVEC, immunofluorescence, MLSMR starter and 10KST1 sets, primary screen (AID 487);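 for inhibition: signal is fraction of cell area covered by stained E-selectin grains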
SETTINGS: HUVEC TNFalpha-induced E-selectin immunofluorescence imaging, at 2 µM; stronger effect = higher value
Calls of active or inactive are those of the source.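 The calls were made as follows: active = visually confirmed hit in the image check and inhibition above 20%; inconclusive = visually confirmed hit but inhibition not above 20%; inactive = no visual hit in the image check.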
Recorded inhibition by entry

Illustrative cases are given below, each with its answer.
MOLECULE	inhibition
COCCCNC(=O)CC1Oc2ccccc2NC1=O (stereo not given)	-48.7% (inactive)
Cc1sc2nc(SCC(=O)N3CCN(CCO)CC3)n(-c3ccccc3)c(=O)c2c1C	-55% (inactive)
Cc1ccccc1-c1nc(CN2CCC(C(=O)N3CCC(C(N)=O)CC3)CC2)c(C)o1	7.6% (inactive)
CC(C)(C#N)Nn1cnnc1	-1.2% (inactive)
Cc1ccc(NC(=O)CCC(=O)OCC(F)(F)C(F)F)cc1	-2.3% (inactive)
O=C(CCN1CCN(C(=O)c2ccco2)CC1)Nc1ccc(F)cc1	-78.7% (inactive)
COc1ccc(-c2c(=O)n(OCc3ccccn3)c3ccccc3[n+]2[O-])cc1OC	-22.9% (inactive)
CCCCCC(=O)N(CN1C(=O)CCC1=O)c1ccccc1	21.6% (inactive)

--- query ---
Find the recorded inhibition belonging to N#Cc1cnn(Cc2ccc(Cl)cc2)c1N and report it.
-28.9% (inactive)
